# assayInfo: Phase I trial of oral PCLX-001: plasma pharmacokinetics, noncompartmental analysis (Phoenix WinNonlin 8.3)
# Type: in vivo, human
# settings: human, plasma, oral, 20 mg, Table 3; human (patient 1); 20 mg/75 kg = 0.27 mg/kg

>  <smilesStr>
Cc1c(NS(=O)(=O)c2c(Cl)cc(-c3ccnc(N4CCNCC4)c3)cc2Cl)c(CC(C)C)nn1C

>  <valueUnit>
ng/mL

>  <Cmax>
479

$$$$

----------
# assayInfo: Phase I trial of oral PCLX-001: plasma pharmacokinetics, noncompartmental analysis (Phoenix WinNonlin 8.3)
# Format: in vivo, human
# settings: human, plasma, oral, 70 mg, Table 5; median (min, max); on Pantoprazole; 70 mg; N 2; Day 1; read-out: Tmax

>  <smilesStr>
Cc1c(NS(=O)(=O)c2c(Cl)cc(-c3ccnc(N4CCNCC4)c3)cc2Cl)c(CC(C)C)nn1C

>  <valueUnit>
h

>  <Tmax>
6

$$$$

----------
# assayInfo: Phase I trial of oral PCLX-001: plasma pharmacokinetics, noncompartmental analysis (Phoenix WinNonlin 8.3)
# Type: in vivo, human
# settings: human, plasma, po, 40 mg, Table 7; Patient 115-002-005; Day 1; 40 mg QD oral; Pantoprazole Yes

>  <compound>
Cc1c(NS(=O)(=O)c2c(Cl)cc(-c3ccnc(N4CCNCC4)c3)cc2Cl)c(CC(C)C)nn1C [PCLX-001]

>  <AUC(0-inf) / ng·h/mL>
4900

$$$$

----------
# assayInfo: Phase I trial of oral PCLX-001: plasma pharmacokinetics, noncompartmental analysis (Phoenix WinNonlin 8.3)
# Format: in vivo, human
# settings: human, plasma, oral, 70 mg, Table 4; not on Pantoprazole; 70 mg; N 1; Day 1

>  <smilesStr>
Cc1c(NS(=O)(=O)c2c(Cl)cc(-c3ccnc(N4CCNCC4)c3)cc2Cl)c(CC(C)C)nn1C

>  <valueUnit>
ng·h/mL

>  <AUC(0-inf)>
11300

$$$$

----------
# assayInfo: Phase I trial of oral PCLX-001: plasma pharmacokinetics, noncompartmental analysis (Phoenix WinNonlin 8.3)
# Assay type: in vivo, human
# settings: human, plasma, po, 40 mg, Table 7; Patient 115-002-005; Day 1; 40 mg QD oral; Pantoprazole Yes; read-out: AUClast or AUCtau
valueKind: AUC(0-t) (ng·h/mL)

>  <smilesStr>
Cc1c(NS(=O)(=O)c2c(Cl)cc(-c3ccnc(N4CCNCC4)c3)cc2Cl)c(CC(C)C)nn1C

>  <valueUnit>
ng·h/mL

>  <reported>
4430

$$$$

----------
# assayInfo: in vivo
# settings: dog, plasma, po
valueKind: Cmax (ng/mL)

>  <compound>
Cc1c(NS(=O)(=O)c2c(Cl)cc(-c3ccnc(N4CCNCC4)c3)cc2Cl)c(CC(C)C)nn1C [PCLX-001]

>  <valueKind>
Cmax

>  <valueUnit>
ng/mL

>  <reported>
650

$$$$

----------
# assayInfo: Phase I trial of oral PCLX-001: plasma pharmacokinetics, noncompartmental analysis (Phoenix WinNonlin 8.3)
# Type: in vivo, human
# settings: human, plasma, po, 140 mg, Table 10; Patient 115-024-013; Day 1; Dose 140 mg QD oral; Concomitant Pantoprazole Yes; read-out: AUClast or AUCtau

>  <smilesStr>
Cc1c(NS(=O)(=O)c2c(Cl)cc(-c3ccnc(N4CCNCC4)c3)cc2Cl)c(CC(C)C)nn1C

>  <AUC(0-t), ng·h/mL>
10900

$$$$
